# system: NPY Y2 receptor (Homo sapiens)
# Construct: endogenous in cells; host or cells: KAN-Ts cells (membrane preparation)
# test_description: Neuropeptide Y2 radioligand binding assay ([125I]PYY, KAN-Ts cell membranes)
# conditions: membranes of KAN-Ts cells endogenously expressing Y2 receptors; [125I]PYY 80 pM; 1 h at rt; read-out: IC50 (μM), NPY Y2 binding
value_kind: IC50 (µM)

Some compounds with recorded IC50:
CCN(CC)C(=O)C(c1ccccc1)N1CCN(c2ccc(-c3ccccn3)cc2F)CC1 (stereo not shown) [Compound 201]: 0.74
CCc1noc(-c2ccc(N3CCN(C(C(=O)N(C)C)c4ccccc4)CC3)c(F)c2)n1 (stereo not shown) [Compound 181]: 0.53
CCN(CC)C(=O)C(c1ccccc1)N1CCN(c2ccc(-c3nc(C(C)C)no3)cc2F)CC1 (stereo not shown) [Compound 80]: 0.041
CCN(C)C(=O)C(c1ccccc1)N1CCN(c2ccc(-c3nc(C(C)C)no3)cc2F)CC1 (stereo not shown) [Compound 184]: 2.2
CCN(CC)C(=O)C(c1ccccc1)N1CCN(c2ccc(-c3nc(C(C)C)n(C)n3)cc2F)CC1 (stereo not shown) [Compound 216]: 1.95
CCNC(=O)C(c1ccccc1)N1CCN(c2ccc(-c3nc(C)no3)cc2F)CC1 (stereo not shown) [Compound 190]: 0.33
CCN(CC)C(=O)C(c1ccccc1)N1CCN(c2ccc(-c3cccc(C)c3)cc2F)CC1 (stereo not shown) [Compound 206]: 0.48
CC(=O)C(c1ccccc1)N1CCN(c2ccc(-c3nc(C(C)C)no3)cc2F)CC1 (stereo not shown) [Compound 198]: 2.7
CCN(CC)C(=O)C(c1ccc(F)cc1)N1CCN(c2ccc(-c3nc(C)no3)cc2F)CC1 (stereo not shown) [Compound 210]: 0.29
CCN(CC)C(=O)C(c1ccc(F)cc1)N1CCN(c2ccc(-c3nc(C)no3)cc2C#N)CC1 (stereo not shown) [Compound 262]: 0.098

a: CCN(CC)C(=O)C(c1ccccc1)N1CCN(c2ccc(-c3ncon3)cc2F)CC1 (stereo not shown) [Compound 158]
b: CCOC(=O)C(C)(c1ccccc1)N1CCN(c2ccc(-c3nc(C)no3)cc2F)CC1 (stereo not shown) [Compound 226]
c: CCN(CC)C(=O)C(c1ccccc1)N1CCN(c2ccc(-c3noc(CC(C)(C)C)n3)cc2F)CC1 (stereo not shown) [Compound 79]
d: CCc1noc(-c2ccc(N3CCN(C(C(=O)N(CC)CC)c4ccccc4)CC3)c(F)c2)n1 (stereo not shown) [Compound 71]
Asked: Ordering criterion: IC50; begin with the maximum. Put the labels in the requested order and write them down.
Given back: c, a, b, d

A: CCN(CC)C(=O)C(c1ccccc1)N1CCN(c2ccc(-c3nc(C(=O)OC)co3)cc2F)CC1 (stereo not shown) [Compound 129]
B: CCCc1nc(-c2ccc(N3CCN(C(C(=O)N(CC)CC)c4ccccc4)CC3)c(F)c2)no1 (stereo not shown) [Compound 68]
Asked: Of the two listed items, which has the higher IC50? First: A Second: B Respond using the label that marks the chosen record.
Given back: A

P: CCN(CC)C(=O)C(c1ccccc1)N1CCN(c2ccc(-c3cccc(Cl)c3)cc2F)CC1 (stereo not shown) [Compound 194]
Q: CCN(CC)C(=O)C(c1ccccc1)N1CCN(c2ccc(-c3ccccc3C#N)cc2F)CC1 (stereo not shown) [Compound 253]
R: CCN(CC)C(=O)C(c1cccc(F)c1)N1CCN(c2ccc(-c3nc(C)no3)cc2C#N)CC1 (stereo not shown) [Compound 263]
S: CCc1noc(-c2ccc(N3CCN(C(C(=O)N(C)CC)c4ccccc4)CC3)c(F)c2)n1 (stereo not shown) [Compound 197]
T: CCNC(=O)C(c1ccccc1)N1CCN(c2ccc(-c3nc(C)no3)cc2C#N)CC1 (stereo not shown) [Compound 261]
Asked: Ordering criterion: IC50; begin with the maximum. Put the labels in the requested order and write them down.
Given back: Q, P, T, S, R
(Q: 8.3 µM, P: 0.88 µM, T: 0.41 µM, S: 0.075 µM, R: 0.035 µM)

----------
# system: NPY Y2 receptor (Homo sapiens)
# Construct: endogenous in cells; host or cells: KAN-Ts cells (membrane preparation)
# test_description: Neuropeptide Y2 radioligand binding assay ([125I]PYY, KAN-Ts cell membranes)
# conditions: membranes of KAN-Ts cells endogenously expressing Y2 receptors; [125I]PYY 80 pM; 1 h at rt; read-out: IC50 (μM), NPY Y2 binding
value_kind: IC50 (µM)

Some molecules with recorded IC50:
CCN(CC)C(=O)C(c1ccccc1)N1CCN(c2ccc(-c3cnn(C)c3)cc2F)CC1 (stereo not shown): 0.9
CCN(CC)C(=O)C(c1ccccc1)N1CCN(c2ccc(-c3cc(C)n[nH]3)cc2F)CC1 (stereo not shown): 0.81

a: CC(C)c1noc(-c2ccc(N3CCN(C(C(=O)N4CCCC4)c4ccccc4)CC3)c(F)c2)n1 (stereo not shown)
b: CCN(CC)C(=O)C(c1ccccc1)N1CCN(c2ccc(-c3nc(C(C)C)no3)cc2CO)CC1 (stereo not shown)
Asked: Of the two listed items, which has the higher IC50? First: a Second: b Respond using the label that marks the chosen record.
Given back: b

----------
# system: NPY Y2 receptor (Homo sapiens)
# Construct: endogenous in cells; host or cells: KAN-Ts cells (membrane preparation)
# Sequence (P49146 1-381): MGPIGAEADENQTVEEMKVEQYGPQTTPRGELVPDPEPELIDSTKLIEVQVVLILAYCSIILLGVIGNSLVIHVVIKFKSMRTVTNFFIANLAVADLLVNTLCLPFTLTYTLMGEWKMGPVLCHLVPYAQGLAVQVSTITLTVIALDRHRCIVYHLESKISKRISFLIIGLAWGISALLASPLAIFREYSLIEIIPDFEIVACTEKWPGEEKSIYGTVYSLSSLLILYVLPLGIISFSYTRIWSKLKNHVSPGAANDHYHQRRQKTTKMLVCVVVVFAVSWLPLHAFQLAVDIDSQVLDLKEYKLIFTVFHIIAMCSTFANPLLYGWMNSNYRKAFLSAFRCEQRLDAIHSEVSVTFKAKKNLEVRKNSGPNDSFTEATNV
# test_description: Neuropeptide Y2 radioligand binding assay ([125I]PYY, KAN-Ts cell membranes)
# conditions: membranes of KAN-Ts cells endogenously expressing Y2 receptors; [125I]PYY 80 pM; 1 h at rt; read-out: IC50 (μM), NPY Y2 binding
value_kind: IC50 (µM)

Some compounds with recorded IC50:
CCN(CC)C(=O)C(c1ccccc1)N1CCN(c2ccc(-c3nc(C(C)C)no3)cc2COC)CC1 (centres unmarked) [Compound 260]: 0.98
CCc1nc(-c2ccc(N3CCN(C(C(=O)N(CC)CC)c4ccccc4)CC3)c(F)c2)no1 (centres unmarked) [Compound 3]: 0.24
CC(C)c1noc(-c2ccc(N3CCN(C(C(=O)N(C)C)c4ccccc4)CC3)c(F)c2)n1 (centres unmarked) [Compound 180]: 0.15

A: CCN(CC)C(=O)C(c1ccccc1)N1CCN(c2ccc(-c3ccc(F)cc3)cc2F)CC1 (centres unmarked) [Compound 207]
B: CCN(CC)C(=O)C(c1ccccc1)N1CCN(c2ccc(-c3nc(C(C)C)no3)cc2CNC)CC1 (centres unmarked) [Compound 258]
Asked: Of the two listed items, which has the higher IC50? First: A Second: B Respond using the label that marks the chosen record.
Given back: B

----------
# system: NPY Y2 receptor (Homo sapiens, UniProt P49146)
# Construct: endogenous in cells; host or cells: KAN-Ts cells (membrane preparation)
# test_description: Neuropeptide Y2 radioligand binding assay ([125I]PYY, KAN-Ts cell membranes)
# conditions: membranes of KAN-Ts cells endogenously expressing Y2 receptors; [125I]PYY 80 pM; 1 h at rt; read-out: IC50 (μM), NPY Y2 binding
value_kind: IC50 (µM)

Some compounds with recorded IC50:
COC(=O)C(c1ccccc1)N1CCN(c2ccc(-c3nc(C(C)C)no3)cc2F)CC1 (stereo not shown): 0.24
CCN(CC)C(=O)C(c1ccccc1)N1CCN(c2ccc(-c3nc(C(C)C)no3)cc2CN(C)C)CC1 (stereo not shown): 2.4
CCc1nnc(-c2ccc(N3CCN(C(C(=O)N(CC)CC)c4ccccc4)CC3)c(F)c2)o1 (stereo not shown): 0.3

A: CCN(CC)C(=O)C(c1ccccc1)N1CCN(c2ccc(-c3noc(=O)n3C)cc2F)CC1 (stereo not shown)
B: CCN(CC)C(=O)C(c1ccccc1)N1CCN(c2ccc(C3=NN(C(C)C)C(=O)C3)cc2F)CC1 (stereo not shown)
Asked: Input pair: A , B . Output: entry with lower IC50. Respond using the label that marks the chosen record.
Given back: B

1: CCN(CC)C(=O)C(c1cccs1)N1CCN(c2ccc(-c3nc(C)no3)cc2C#N)CC1 (stereo not shown)
2: CCN(CC)C(=O)C(c1ccccc1)N1CCN(c2ccc(-c3nc(C(C)C)nn3C)cc2F)CC1 (stereo not shown)
Asked: Of the two listed items, which has the higher IC50? First: 1 Second: 2 Respond using the label that marks the chosen record.
Given back: 2

A: CCN(CC)C(=O)C(c1ccccc1OC)N1CCN(c2ccc(-c3nc(C)no3)cc2C#N)CC1 (stereo not shown)
B: CCN(CC)C(=O)C(c1ccccc1)N1CCN(c2ccc(-c3ccc(C)cc3)cc2F)CC1 (stereo not shown)
C: CCN(CC)C(=O)C(c1ccccc1)N1CCN(c2ccc(-c3nc(C)n[nH]3)cc2F)CC1 (stereo not shown)
Asked: Form: Sort by [IC50] Order [ ascending ] Put the labels in the requested order and write them down.
Given back: A, B, C
(A: 0.49 µM, B: 0.77 µM, C: 2.9 µM)
